Protocol Notes: Cynomolgus monkey plasma pharmacokinetics
Experimental Parameters: male, iv, 4.37 mg/kg, AUC0-inf, mean of 3 monkeys, 4.37 mg/kg i.v. bolus
Counter-ions that a name gives are not always drawn.
Readout: AUC(0-inf) (µg·h/mL)
Kindly provide the numeric value in µg·h/mL only, without the unit symbol.

QUERY: Request the reported AUC(0-inf) associated with Cc1ccc(C(=O)Nc2ccc(S(=O)(=O)O)c3cc(S(=O)(=O)O)cc(S(=O)(=O)O)c23)cc1NC(=O)c1cccc(NC(=O)Nc2cccc(C(=O)Nc3cc(C(=O)Nc4ccc(S(=O)(=O)O)c5cc(S(=O)(=O)O)cc(S(=O)(=O)O)c45)ccc3C)c2)c1 [suramin, Suramin sodium salt]
RESULT: 2330
